Assay: Tmax in rat at 10 mg/kg, po by LC-MS/MS method
Type: ADME, organism-based
Conditions: in vivo
Readout Label: Tmax (h)
One number for each entry, in h.

For the molecule `N#Cc1cc(C(F)(F)F)ccc1N1CCOc2cc(S(=O)(=O)Nc3nccs3)c(F)cc21` , give its reported Tmax. 6.7

---

Experiment: Protein binding in mouse plasma at 5 uM by ultracentrifugation and LC-MS/MS method
Format: ADME, cell-free
Settings: read-out: PPB (converted)
Readout Label: fraction unbound at 5 µM
Answers are plain numbers.

For the molecule `N#Cc1cc(C(F)(F)F)ccc1N1CCOc2cc(S(=O)(=O)Nc3nccs3)c(F)cc21` , give its reported fraction unbound at 5 µM. 0.006

---

Assay: Cmax in rat at 10 mg/kg, po by LC-MS/MS method
Assay type: ADME, organism-based
Design: dose 10 mg/kg, route oral
Conditions: in vivo
Readout Label: Cmax

For the molecule `N#Cc1cc(C(F)(F)F)ccc1N1CCOc2cc(S(=O)(=O)Nc3nccs3)c(F)cc21` , give its reported Cmax. 950 to 990 nM

---

Test: Clearance in pooled human liver microsomes at 1 uM in presence of NADPH by LC-MS/MS method
Format: ADME, microsome
Conditions: read-out: CLH
Readout Label: microsomal CLint at 1 µM

// below: answered compounds
COc1cc(F)ccc1N1CCOc2cc(S(=O)(=O)Nc3nccs3)ccc21 110 µL/min/mg
N#Cc1cc(C(F)(F)F)ccc1N1CCOc2cc(S(=O)(=O)Nc3ncns3)ccc21 < 14 µL/min/mg
N#Cc1cc(C(F)(F)F)ccc1N1CCOc2cc(S(=O)(=O)Nc3nccs3)c(F)cc21 < 14 µL/min/mg

# per-item lookup of microsomal CLint at 1 µM; items listed below
1. N#Cc1cc(C(F)(F)F)ccc1N1CCOc2cc(S(=O)(=O)Nc3cscn3)ccc21
2. N#Cc1cc(C(F)(F)F)ccc1N1CCOc2c1ccc(S(=O)(=O)Nc1nccs1)c2F

1: 55 µL/min/mg; 2: < 14 µL/min/mg

---

Tested on: Plasma
Assay: Plasma concentration in C57BL/6 mouse model of histamine-induced pruritus at 30 mg/kg, po
Assay type: ADME, organism-based
Conditions: in vivo
Readout Label: concentration (µM)
Give bare numbers, in µM.

For the compound `N#Cc1cc(C(F)(F)F)ccc1N1CCOc2cc(S(=O)(=O)Nc3nccs3)c(F)cc21` , give its reported concentration. 61

---

Exercise: for every item that follows, state its recorded IC50.
Molecular target: Sodium channel protein type 5 subunit alpha (Homo sapiens)
Sequence (Q14524 whole entry): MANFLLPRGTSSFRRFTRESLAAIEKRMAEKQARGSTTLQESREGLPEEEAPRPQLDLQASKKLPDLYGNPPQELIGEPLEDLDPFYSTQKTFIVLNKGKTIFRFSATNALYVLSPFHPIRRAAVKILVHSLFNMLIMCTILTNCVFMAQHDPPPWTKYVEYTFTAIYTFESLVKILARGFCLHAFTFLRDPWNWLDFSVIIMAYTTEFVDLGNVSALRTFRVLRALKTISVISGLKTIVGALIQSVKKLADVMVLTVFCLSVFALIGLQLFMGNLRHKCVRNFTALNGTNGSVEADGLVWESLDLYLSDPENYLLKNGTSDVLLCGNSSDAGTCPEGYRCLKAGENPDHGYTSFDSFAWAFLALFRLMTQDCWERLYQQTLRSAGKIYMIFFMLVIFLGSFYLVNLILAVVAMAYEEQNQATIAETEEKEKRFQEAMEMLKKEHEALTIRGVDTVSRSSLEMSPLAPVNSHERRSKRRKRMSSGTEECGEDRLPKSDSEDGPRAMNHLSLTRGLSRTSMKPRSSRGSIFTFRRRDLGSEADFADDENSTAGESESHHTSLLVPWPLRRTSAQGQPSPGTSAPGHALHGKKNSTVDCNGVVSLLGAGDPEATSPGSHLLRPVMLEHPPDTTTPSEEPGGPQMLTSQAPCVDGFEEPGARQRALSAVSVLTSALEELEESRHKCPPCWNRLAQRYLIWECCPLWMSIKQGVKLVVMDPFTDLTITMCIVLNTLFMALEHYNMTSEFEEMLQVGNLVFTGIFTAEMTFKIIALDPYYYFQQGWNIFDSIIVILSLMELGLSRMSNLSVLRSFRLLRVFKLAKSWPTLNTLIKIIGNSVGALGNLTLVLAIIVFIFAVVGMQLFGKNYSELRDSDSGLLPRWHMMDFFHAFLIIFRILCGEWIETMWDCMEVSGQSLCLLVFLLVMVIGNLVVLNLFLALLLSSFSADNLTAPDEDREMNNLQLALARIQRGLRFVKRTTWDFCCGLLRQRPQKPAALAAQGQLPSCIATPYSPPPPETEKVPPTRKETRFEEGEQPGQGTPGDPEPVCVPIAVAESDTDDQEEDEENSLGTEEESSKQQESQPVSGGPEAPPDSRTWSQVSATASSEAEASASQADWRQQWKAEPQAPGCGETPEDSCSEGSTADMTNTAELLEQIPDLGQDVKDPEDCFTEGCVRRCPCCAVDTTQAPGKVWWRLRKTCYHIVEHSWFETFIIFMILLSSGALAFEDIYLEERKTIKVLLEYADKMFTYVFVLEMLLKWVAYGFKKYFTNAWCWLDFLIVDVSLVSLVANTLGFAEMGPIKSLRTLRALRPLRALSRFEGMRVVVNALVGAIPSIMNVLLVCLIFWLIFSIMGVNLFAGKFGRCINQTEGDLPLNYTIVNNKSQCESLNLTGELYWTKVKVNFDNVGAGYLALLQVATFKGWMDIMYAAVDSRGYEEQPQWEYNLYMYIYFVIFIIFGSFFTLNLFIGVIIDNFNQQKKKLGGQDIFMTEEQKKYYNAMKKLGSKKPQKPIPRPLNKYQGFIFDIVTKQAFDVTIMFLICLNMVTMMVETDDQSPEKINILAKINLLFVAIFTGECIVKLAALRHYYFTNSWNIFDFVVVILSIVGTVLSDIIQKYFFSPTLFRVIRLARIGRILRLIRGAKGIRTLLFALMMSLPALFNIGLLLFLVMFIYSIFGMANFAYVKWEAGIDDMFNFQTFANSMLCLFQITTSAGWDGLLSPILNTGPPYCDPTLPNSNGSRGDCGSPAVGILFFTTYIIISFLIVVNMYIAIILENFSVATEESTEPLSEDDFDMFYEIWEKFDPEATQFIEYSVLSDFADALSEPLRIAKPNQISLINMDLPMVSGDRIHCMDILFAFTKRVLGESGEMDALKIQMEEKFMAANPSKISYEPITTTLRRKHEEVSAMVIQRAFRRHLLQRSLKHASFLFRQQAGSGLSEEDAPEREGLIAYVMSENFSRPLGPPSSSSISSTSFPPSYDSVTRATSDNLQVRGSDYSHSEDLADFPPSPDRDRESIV
Test: Inhibition of human NaV1.5 expressed in […] cells at holding potential of -125 mV with test potentials to -10 mV by whole cell voltage clamp method

// below: answered compounds
COc1cc(F)ccc1N1CCOc2cc(S(=O)(=O)Nc3nccs3)ccc21 > 30 µM
O=S(=O)(Nc1ccncn1)c1ccc2c(-c3ccc(C(F)(F)F)cc3C3=CCNCC3)cccc2c1 > 30 µM

Pending compound:
For the compound `N#Cc1cc(C(F)(F)F)ccc1N1CCOc2cc(S(=O)(=O)Nc3nccs3)c(F)cc21` , give its reported IC50. 0.32 to 0.33 µM

---

Experiment: Clearance in pooled human liver microsomes at 1 uM in presence of NADPH by LC-MS/MS method
Assay type: ADME, microsome
Conditions: read-out: CLH
Exercise: for every item that follows, state its recorded microsomal CLint at 1 µM.
Numbers only, in µL/min/mg.

# per-item lookup of microsomal CLint at 1 µM; items listed below
1. N#Cc1cc(C(F)(F)F)ccc1N1CCOc2cc(S(=O)(=O)Nc3ccno3)ccc21
2. N#Cc1cc(C(F)(F)F)ccc1N1CCOc2cc(S(=O)(=O)Nc3ncco3)ccc21
3. COc1cc(C(F)(F)F)ccc1N1CCOc2cc(S(=O)(=O)Nc3nccs3)ccc21

1. 32
2. 15
3. 30

For the molecule `N#Cc1cc(C(F)(F)F)ccc1N1CCOc2cc(S(=O)(=O)Nc3nccs3)c(Cl)cc21` , give its reported microsomal CLint at 1 µM. 22
